# Test system: hLTBP1-/hLTBP3-proTGFβ1 vs hGARP-/hLRRC33-proTGFβ1 complexes
# method.summary: Solution equilibrium titration: relative affinity (bias) LTBP complexes vs cell-associated complexes
# Type: binding, human
# test.parameters: MSD-SET, ratio of average KD cell-associated / matrix-associated
quantity.kind: (H) G/D (fold bias) (fold)
# number only, unit fold dropped from output

Lab note: measured (H) G/D (fold bias) of Ab11: monoclonal antibody; VH SEQ ID NO: 239, VL SEQ ID NO: 241 (antibody, V domains shown) VH: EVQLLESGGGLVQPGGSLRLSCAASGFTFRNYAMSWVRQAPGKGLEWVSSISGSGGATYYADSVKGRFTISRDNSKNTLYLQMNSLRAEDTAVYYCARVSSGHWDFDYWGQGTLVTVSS VL: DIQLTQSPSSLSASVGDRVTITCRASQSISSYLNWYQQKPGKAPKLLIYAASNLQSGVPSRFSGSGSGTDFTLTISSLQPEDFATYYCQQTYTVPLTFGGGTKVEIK was 3.87

Lab note: measured (H) G/D (fold bias) of Ab32: monoclonal antibody; VH SEQ ID NO: 140, VL SEQ ID NO: 15 (antibody, V domains shown) VH: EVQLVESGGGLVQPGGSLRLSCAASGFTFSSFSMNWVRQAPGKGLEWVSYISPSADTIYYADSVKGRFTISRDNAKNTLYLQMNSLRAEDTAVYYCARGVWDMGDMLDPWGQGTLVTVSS VL: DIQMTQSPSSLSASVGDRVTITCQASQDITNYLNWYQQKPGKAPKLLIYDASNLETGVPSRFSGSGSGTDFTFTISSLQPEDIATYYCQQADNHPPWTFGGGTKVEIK was 1.60

Data provenance is patent US11130803B2.
